Molecular target: CDK1 (Homo sapiens)
Sequence (P06493 whole entry, species assumed): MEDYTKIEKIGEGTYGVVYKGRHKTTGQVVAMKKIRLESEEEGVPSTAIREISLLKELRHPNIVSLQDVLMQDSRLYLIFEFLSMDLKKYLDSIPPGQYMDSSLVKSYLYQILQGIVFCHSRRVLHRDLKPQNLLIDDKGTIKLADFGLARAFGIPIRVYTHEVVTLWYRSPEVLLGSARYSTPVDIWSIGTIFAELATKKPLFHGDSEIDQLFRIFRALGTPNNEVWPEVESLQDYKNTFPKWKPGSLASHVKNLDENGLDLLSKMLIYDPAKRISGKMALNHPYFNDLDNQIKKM
Sequence (P14635 whole entry partner, species assumed): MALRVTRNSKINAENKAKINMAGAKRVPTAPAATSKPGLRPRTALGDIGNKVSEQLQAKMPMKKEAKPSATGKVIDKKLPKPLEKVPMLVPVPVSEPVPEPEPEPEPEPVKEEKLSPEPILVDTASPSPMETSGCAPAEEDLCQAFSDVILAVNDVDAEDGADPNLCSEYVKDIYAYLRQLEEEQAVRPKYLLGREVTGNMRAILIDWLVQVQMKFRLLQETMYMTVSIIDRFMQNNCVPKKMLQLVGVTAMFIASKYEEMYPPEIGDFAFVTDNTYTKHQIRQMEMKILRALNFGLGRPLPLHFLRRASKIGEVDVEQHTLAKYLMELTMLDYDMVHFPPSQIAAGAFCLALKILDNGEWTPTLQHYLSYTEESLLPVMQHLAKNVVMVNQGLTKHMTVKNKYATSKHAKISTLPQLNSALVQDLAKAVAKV
Experiment: Kinase inhibition at 10 μM, CDK1
Type: biochemical
Details: 10 μM of Compound; read-out: Percentage Inhibition of CDK1
# inhibition at 10 µM annotations
Write the number in % without appending the unit.

Worked examples, 4 molecules total:
>  <chemical.string>
NS(=O)(=O)c1ccc(N/N=C2\CCNC(=O)c3[nH]c4ccc(Cl)cc4c32)cc1

>  <metric.name>
inhibition at 10 µM

>  <readout.units>
%

>  <reported.measurement>
95

$$$$
>  <chemical.string>
O=C1NCC/C(=N\Nc2cccnc2)c2c1[nH]c1ccc(Cl)cc21

>  <metric.name>
inhibition at 10 µM

>  <readout.units>
%

>  <reported.measurement>
97

$$$$
>  <chemical.string>
NC1=NC(=O)/C(=C2\CCNC(=O)c3[nH]c4ccc(F)cc4c32)N1

>  <metric.name>
inhibition at 10 µM

>  <readout.units>
%

>  <reported.measurement>
99

$$$$
>  <chemical.string>
O=C1NCC/C(=N\Nc2ccccn2)c2c1[nH]c1ccc(Cl)cc21

>  <metric.name>
inhibition at 10 µM

>  <readout.units>
%

>  <reported.measurement>
88

$$$$

Here's the next entry for you.
Reported CDK1 (Homo sapiens) inhibition at 10 µM for item O=C1NCC/C(=N\Nc2ccccn2)c2c1[nH]c1ccc(F)cc21 was 98
